system: RXRa DBDmut IVT, anti-RXR (DBD mutation: RXRa K156A/R161A, NR concentration 90 nM); test: PBM binding z-score (relative to random genomic background probes); higher = stronger binding; sequences stand for … in GC…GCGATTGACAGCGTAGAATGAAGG
property: PBM binding z-score

Worked cases, answers included:
CCTAGTTGGTCAGGAGGTCACAAACCGGATATGA	0.534
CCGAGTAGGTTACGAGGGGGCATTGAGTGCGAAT	1.46
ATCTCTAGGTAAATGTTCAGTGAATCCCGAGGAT	-0.155
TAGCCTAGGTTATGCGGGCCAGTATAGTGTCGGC	-0.93
TCTCGGAGGTCACGAAGGTCAGAGCTTTCCAGAG	3.05

State the recorded PBM binding z-score for this entry: GACACAGGGTCAGCTAGAGGCCAGAGTATGGAAA
1.3

What would you report for TCGAGTAGGTTACGGTGGCATTCAGGGATGAAGA ?
-0.239

What would you report for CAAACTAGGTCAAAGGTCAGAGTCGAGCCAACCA ?
2.57

What would you report for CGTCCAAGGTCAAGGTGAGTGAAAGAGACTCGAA ?
3.37

What would you report for GCTGCTAGGTCAACTGAAGGTCAGCTAAAGCTCG ?
1.68

What would you report for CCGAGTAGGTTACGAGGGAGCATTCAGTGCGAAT ?
0.00513

What would you report for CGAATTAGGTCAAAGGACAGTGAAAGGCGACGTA ?
1.73
